Listed molecules paired with reported Inhibition %
Biological target: recombinant human cGAS enzyme (hcGAS-ΔN, residues 147–522) (Homo sapiens)
Construct: N-terminally truncated human cGAS (hcGAS-ΔN, residues 147–522); 6xHis-SUMO (N, cleaved yes); made in house; host or cells: Escherichia coli BL21 (DE3)
Sequence (Q8N884 147-522, stated change not applied): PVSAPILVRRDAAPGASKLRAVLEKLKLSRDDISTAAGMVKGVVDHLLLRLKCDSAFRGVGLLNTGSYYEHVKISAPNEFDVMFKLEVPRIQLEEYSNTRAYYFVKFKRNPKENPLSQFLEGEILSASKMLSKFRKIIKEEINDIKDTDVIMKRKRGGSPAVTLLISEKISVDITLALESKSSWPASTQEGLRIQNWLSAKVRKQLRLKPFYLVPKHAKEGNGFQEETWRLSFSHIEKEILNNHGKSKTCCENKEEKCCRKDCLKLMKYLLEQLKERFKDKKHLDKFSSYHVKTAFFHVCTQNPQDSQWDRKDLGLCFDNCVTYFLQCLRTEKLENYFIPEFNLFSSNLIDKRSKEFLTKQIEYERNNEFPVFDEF
Assay: RNA-based fluorescent biosensor assay of cGAS activity (2',3'-cGAMP formation), in vitro screening
Format: biochemical
Conditions: peptides screened at 20 μM; Supplementary Table 1 / Fig. S5b; 20 µM
Square brackets hold non-standard residues; d marks the D form. Peptide text beside a SMILES is read from it.

Use the examples below as a reference point.
molecule	Inhibition %
CC(C)C[C@@H]1NC(=O)[C@H](CCCNC(=N)N)NC(=O)[C@H](C(C)C)NC(=O)[C@H](C)NC(=O)[C@@H](Cc2ccccc2)NC(=O)[C@H](CC(C)C)NC(=O)[C@H](CCCNC(=N)N)NC(=O)[C@H](C(C)C)NC(=O)[C@H](C)NC(=O)[C@@H](Cc2ccccc2)NC1=O [XQ8, Cyclo (LfAVRLfAVR)] (cyclo(AVRL[dF]AVRL[dF]))	≥ 40%
CC(C)C[C@@H]1NC(=O)[C@H](CC(C)C)NC(=O)[C@H](C(C)C)NC(=O)[C@@H]2CCCN2C(=O)[C@@H](Cc2ccccc2)NC(=O)[C@H](C)NC(=O)[C@H](CCCNC(=N)N)NC(=O)[C@H](C(C)C)NC(=O)[C@@H]2CCCN2C(=O)[C@@H](Cc2ccccc2)NC1=O [XQ46, Cyclo (AfPVLLfPVR)] (cyclo(A[dF]PVLL[dF]PVR))	≥ 40%

Field: next molecule
Q) Quote Inhibition % reported for CC(C)C[C@@H]1NC(=O)[C@H](CCCNC(=N)N)NC(=O)[C@H](C(C)C)NC(=O)[C@@H]2CCCN2C(=O)[C@@H](Cc2ccccc2)NC(=O)[C@H](C)NC(=O)[C@H](CCCNC(=N)N)NC(=O)[C@H](C(C)C)NC(=O)[C@H](C)NC(=O)[C@@H](Cc2ccccc2)NC1=O [XQ19, Cyclo (AfPVRLfAVR)] (cyclo(AVRA[dF]PVRL[dF])) please.
A) ≥ 40%
